Test system: UO-31 renal
assay: NCI tumour cell line growth inhibition, 48 h
assay readout: TGI

I have this compound here, CN(C)N1C(=C(C#N)C#N)C(c2ccccc2)CC1C#N (stereo not given) , and I need its recorded TGI. > 100 µM

Further, for O=C(Nc1ccc(Nc2ccc3c(c2)C(=O)c2ccccc2C3=O)c2c1C(=O)c1ccccc1C2=O)c1ccccc1 ? > 100 µM

Now this one: [O-]c1ccccc1C=NCCN=Cc1ccccc1[O-].[O]=[U+2]=[O] > 60.6 µM

Next entry: CC1=C[C@H](C[C@]2(C)c3c(c4c(C)cccc4oc3=O)O[C@@H]2C)OC1=O > 100 µM

Further, for CN(c1ccccc1)c1nc(=[N+](C)C)ss1 ? > 100 µM
